- targetDesc: T1, Human VSIG4-L-Fc (human)
- T1 construct: also called hVSIG4-L-Fc; hVSIG4-L
- T1 sequence (chain, as listed by the source limits assumed): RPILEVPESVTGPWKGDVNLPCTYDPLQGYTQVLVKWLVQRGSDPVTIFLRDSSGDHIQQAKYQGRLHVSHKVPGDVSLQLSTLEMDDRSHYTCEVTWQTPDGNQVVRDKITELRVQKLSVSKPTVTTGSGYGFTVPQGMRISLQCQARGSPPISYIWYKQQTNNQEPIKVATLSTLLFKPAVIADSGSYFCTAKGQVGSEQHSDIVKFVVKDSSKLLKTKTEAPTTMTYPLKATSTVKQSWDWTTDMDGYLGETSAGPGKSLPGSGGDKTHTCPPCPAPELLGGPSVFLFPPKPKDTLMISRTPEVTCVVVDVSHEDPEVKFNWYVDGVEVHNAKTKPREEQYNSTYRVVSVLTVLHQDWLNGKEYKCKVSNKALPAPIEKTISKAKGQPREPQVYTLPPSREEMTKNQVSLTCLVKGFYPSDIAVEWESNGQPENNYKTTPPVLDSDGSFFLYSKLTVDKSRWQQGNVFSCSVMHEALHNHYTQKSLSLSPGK
- assayInfo: BLI binning on hVSIG4-L-Fc, competitor 14D12 first;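 also: normalized to binding of second antibody without first competitor antibody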
measuredQuantity: normalized maximum binding nm shift (normalized)
Your answer is read as normalized, so omit the unit and give the number.

Illustrative cases are given below, each with its answer.
# binder, normalized maximum binding nm shift, normalized
data = [
    ("16E03 mouse/human chimeric IgG4 (S228P) kappa (antibody, V domains shown) VH: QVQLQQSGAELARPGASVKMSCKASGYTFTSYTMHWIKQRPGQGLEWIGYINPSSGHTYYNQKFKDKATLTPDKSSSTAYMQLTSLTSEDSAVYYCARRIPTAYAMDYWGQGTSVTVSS VL: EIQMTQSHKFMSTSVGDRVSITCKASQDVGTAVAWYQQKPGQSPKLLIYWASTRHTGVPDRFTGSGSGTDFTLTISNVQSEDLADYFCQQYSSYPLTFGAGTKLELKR", 0.79),
    ("15C04 mouse/human chimeric IgG4 (S228P) kappa (antibody, V domains shown) VH: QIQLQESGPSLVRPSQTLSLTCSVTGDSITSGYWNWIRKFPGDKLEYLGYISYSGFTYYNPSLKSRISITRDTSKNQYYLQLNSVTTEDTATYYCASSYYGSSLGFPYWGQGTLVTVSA VL: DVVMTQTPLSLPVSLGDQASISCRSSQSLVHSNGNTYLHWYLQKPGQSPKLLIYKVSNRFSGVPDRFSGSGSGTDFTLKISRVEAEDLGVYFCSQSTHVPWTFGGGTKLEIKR", 0.72),
]

# normalized maximum binding nm shift of 14D12 mouse/human chimeric IgG4 (S228P) kappa (antibody, V domains shown) VH: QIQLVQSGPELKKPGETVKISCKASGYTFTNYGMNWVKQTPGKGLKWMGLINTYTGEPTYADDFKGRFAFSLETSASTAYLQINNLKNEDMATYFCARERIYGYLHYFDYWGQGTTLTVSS VL: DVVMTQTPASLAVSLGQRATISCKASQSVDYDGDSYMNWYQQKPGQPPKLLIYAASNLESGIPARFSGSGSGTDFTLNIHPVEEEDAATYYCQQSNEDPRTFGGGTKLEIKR = 0.08

normalized maximum binding nm shift measured on 16E10 mouse/human chimeric IgG4 (S228P) kappa (antibody, V domains shown) VH: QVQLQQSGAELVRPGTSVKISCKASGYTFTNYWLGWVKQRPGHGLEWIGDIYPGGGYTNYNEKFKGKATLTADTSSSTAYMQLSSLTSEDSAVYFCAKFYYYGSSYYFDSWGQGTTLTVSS VL: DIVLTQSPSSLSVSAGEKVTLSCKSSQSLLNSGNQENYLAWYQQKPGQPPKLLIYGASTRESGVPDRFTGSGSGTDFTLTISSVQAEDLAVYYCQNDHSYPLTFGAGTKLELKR = 0.69

The binder identified as 15A06 mouse/human chimeric IgG4 (S228P) kappa (antibody, V domains shown) VH: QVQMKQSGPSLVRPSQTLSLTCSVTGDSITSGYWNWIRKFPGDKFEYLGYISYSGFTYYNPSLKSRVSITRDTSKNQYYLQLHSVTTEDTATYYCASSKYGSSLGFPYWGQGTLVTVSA VL: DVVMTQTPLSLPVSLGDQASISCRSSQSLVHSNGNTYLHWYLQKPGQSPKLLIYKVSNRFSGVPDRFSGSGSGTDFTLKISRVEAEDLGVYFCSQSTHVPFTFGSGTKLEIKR registered its normalized maximum binding nm shift at 0.79
